All values here come from PubChem BioAssay.

Item-by-item account of inhibition
- procedure summary: 384-well plate pilot, post-Golgi transport modulator project, inhibition of yeast transport mutant growth (AID 636)
- condition set: absorbance 615 nm, about 18 h, stronger effect = higher value
Calls of active or inactive are those of the source. Rule as the data show it: active = inhibition above about 31%; inactive = the rest.

Example results:
| molecule | inhibition |
| --- | --- |
| O=C1c2ccccc2CN1CCNS(=O)(=O)c1ccc(Cl)cc1 | -7.87% (inactive) |
| Cc1nc2ncnn2c(N2CCC(C(=O)NC3CCCC3)CC2)c1Cc1ccccc1 | -5.48% (inactive) |
| N#Cc1c(NC(=O)CSc2nc(N)cc(=O)[nH]2)sc2c1CCCCCC2 | -0.66% (inactive) |
| CC(=O)Nc1ccc(S(=O)(=O)Nc2nc3n(n2)C(c2ccccc2)CC(=O)N3)cc1 (configuration not stated) | -7.7% (inactive) |
| CCN(Cc1ccccc1)C(c1ccncc1)c1nnnn1C(C)(C)C (configuration not stated) | -5.73% (inactive) |

In plain terms, CCC(C)(C)n1nnnc1C(c1ccncc1)N1CCN(c2cccc(OC)c2)CC1 (configuration not stated) has a documented inhibition of -2.67% (inactive)

In plain terms, Nc1nonc1-c1noc(CCCCCN2C(=O)c3ccccc3C2=O)n1 has a documented inhibition of -4.4% (inactive)

---

- procedure summary: 384-well plate pilot, post-Golgi transport modulator project, inhibition of yeast transport mutant growth (AID 636)
- condition set: absorbance 615 nm, about 18 h, stronger effect = higher value
property: inhibition (%)
I only need the number, in %, no unit after it.

Example results:
| compound | value units | quantitative readout |
| --- | --- | --- |
| CCOc1ccc(Cc2nn[nH]n2)cc1 | % | -5.89 |
| Cc1cc(C)n(-c2ccc(C(=O)Nc3ccc4c(c3)OCCO4)cc2)n1 | % | 1.03 |
| O=C1CC(N2CCN(C3CCc4ccccc4C3)CC2)C(=O)N1c1ccccc1 (stereo not drawn) | % | -1.95 |
| O=C(CSc1nnc(Cn2cnc3ccccc32)o1)c1ccccc1 | % | -6.84 |
| C=C(C)c1cccc(C(C)(C)NC(=O)Nc2ncccn2)c1 | % | -4.08 |

In plain terms, COc1cccc(C2=Nn3c(nnc3-c3ccccc3O)SC2)c1 has a documented inhibition of -3.16

In plain terms, Cc1nn(-c2ccc(Cl)cc2)c2sc(C(=O)N3CCN(c4ccccn4)CC3)cc12 has a documented inhibition of -5.84

In plain terms, CCOc1ccc(NC(=O)CN2CCN(CC(=O)Nc3ccc(F)c(F)c3)CC2)cc1 has a documented inhibition of -3.6

---

- procedure summary: reversal of MRP1-mediated doxorubicin resistance, pilot screen, H69AR cells, doxorubicin co-treatment (AID 601)
- condition set: H69AR cells, CellTiter-Glo, 72 h; compound alone cytotoxicity; at 10 µM
property: viability (%)
I only need the number, in %, no unit after it.

| compound | viability / % |
| --- | --- |
| O=c1[nH]c2c(s1)C(c1ccco1)C1C3CCC(C3)C1S2 (centres undefined) | 78.8 |
| O=C1NC(c2ccco2)Nc2ccccc21 (centres undefined) | 97.8 |
| CCNC(=O)CC1C(=O)N(c2ccccc2)C(=O)N1Cc1ccc(OC)cc1 (centres undefined) | 94.8 |
| CCN(C(=O)c1cc(Cl)ccc1OC)C1CCCCC1 | 83.8 |
| Cc1ccccc1NC(=O)C1CC(=O)N(c2ccccc2F)C1 (centres undefined) | 100 |
| CCCCCCOC(=O)C(C#N)c1nc2ccccc2nc1N1CCCCC1 (centres undefined) | 89.1 |
| O=c1cc(COn2nnc3ccc(C(F)(F)F)cc32)nc2sccn12 | 85.7 |
| CCn1c(=O)cc(SCC(=O)NCC2CCCO2)c2ccccc21 (centres undefined) | 87 |
| COC(=O)CCCCCNc1ccc(C(=O)OC)cc1N | 91.5 |
| O=c1[nH]c2ccccc2nc1NCCN1CCOCC1 | 97.1 |

In plain terms, Cc1cc(/C=N/n2cnnc2)c(C)n1-c1ccc(Cl)cc1Cl has a documented viability of 90.6

In plain terms, c1ccc(Oc2ccc(-n3cnnn3)cc2)cc1 has a documented viability of 94.2

In plain terms, Cc1cc(NC(=O)CSc2nc3ccsc3c(=O)n2NC(=O)c2ccccc2)no1 has a documented viability of 97.1

In plain terms, Cc1ccc2nc(SCC(=O)NCc3ccco3)c(C#N)cc2c1 has a documented viability of 62.2
